MEASUREMENT DESCRIPTION: Volume of distribution in Sprague-Dawley rat at 5 mg/kg, iv
Type: ADME, organism-based
Design: dose 5 mg/kg, route intravenous
ASSAY SETUP: in vivo, read-out: Vdss
ASSAY READOUT: Vd (L/kg)
The reply should be a number in L/kg, with the unit left off.

Endpoint output: Vd of CCCO/N=C(\C)C(Cc1ccc(OCc2nc(-c3ccccc3)oc2C)cc1)C(=O)O (stereo unspecified) . Value?
0.329

---

MEASUREMENT DESCRIPTION: Half life in Sprague-Dawley rat at 5 mg/kg, iv
Type: ADME, organism-based
Design: dose 5 mg/kg, route intravenous
ASSAY SETUP: in vivo
ASSAY READOUT: half-life (h)
Hi! Could you send only the number? It should be in h, unit omitted.

Find the recorded half-life belonging to CCCO/N=C(\C)C(Cc1ccc(OCc2nc(-c3ccccc3)oc2C)cc1)C(=O)O (stereo unspecified) and report it.
5.93

---

For each record, write down the corresponding pEC50.
MEASURED ON: Peroxisome proliferator-activated receptor gamma (Homo sapiens, UniProt P37231)
Sequence (P37231 whole entry): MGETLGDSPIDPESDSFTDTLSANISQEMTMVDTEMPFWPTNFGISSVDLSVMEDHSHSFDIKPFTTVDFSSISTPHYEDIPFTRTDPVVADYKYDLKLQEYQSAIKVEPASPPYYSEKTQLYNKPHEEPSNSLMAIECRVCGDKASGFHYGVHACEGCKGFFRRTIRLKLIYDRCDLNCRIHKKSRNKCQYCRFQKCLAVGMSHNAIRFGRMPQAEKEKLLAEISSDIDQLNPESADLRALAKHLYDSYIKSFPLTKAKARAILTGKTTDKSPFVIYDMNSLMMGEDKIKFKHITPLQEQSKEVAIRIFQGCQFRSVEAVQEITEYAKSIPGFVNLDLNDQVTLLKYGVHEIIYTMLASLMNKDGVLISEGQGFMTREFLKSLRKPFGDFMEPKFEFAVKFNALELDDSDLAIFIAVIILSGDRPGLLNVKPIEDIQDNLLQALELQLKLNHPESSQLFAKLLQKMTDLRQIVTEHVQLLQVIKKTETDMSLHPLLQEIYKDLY
// pEC50 here means minus log10 of the molar concentration (mol/L)

Endpoint output: pEC50 of C/C(=N\OCC1CC1)C(Cc1ccc(OCCc2nc(-c3ccccc3)oc2C)cc1)C(=O)O (stereo not given) . Value?
9.44

What do you have for CCCO/N=C(\C)C(Cc1ccc(OCCc2nc(-c3ccc(F)cc3)oc2C)cc1)C(=O)O (stereo not given) ?
8.68

Now consider CCO/N=C(\C)C(Cc1ccc(OCc2nc(-c3ccc(F)cc3)oc2C)cc1)C(=O)O (stereo not given) and answer again.
8.17

CC/C(=N\OC)C(Cc1ccc(OCCc2nc(-c3ccccc3)oc2C)cc1)C(=O)O (stereo not given) ?
9.51

Same question, C/C(=N/OCc1ccc(F)cc1)C(Cc1ccc(OCCc2nc(-c3ccccc3)oc2C)cc1)C(=O)O (stereo not given) this time
8.30

---

MEASUREMENT DESCRIPTION: AUC (0-24 hrs) in Sprague-Dawley rat at 5 mg/kg, iv
Type: ADME, organism-based
Set-up: time < 24 hr, dose 5 mg/kg, route intravenous
ASSAY SETUP: plasma
ASSAY READOUT: AUC(0-t) at 24 h
Answer with the number, then the unit.

Would you kindly share the measured AUC(0-t) at 24 h for CCCO/N=C(\C)C(Cc1ccc(OCc2nc(-c3ccccc3)oc2C)cc1)C(=O)O (stereo unspecified) ?
113 µg·h/mL
